system: SK-OV-3 ovarian; assay: NCI tumour cell line growth inhibition, 48 h
For each of the compounds below, state its GI50.

Examples from the recorded data:
# Mol, GI50
records = [
    ("O=C1Nc2ccccc2/C1=C/C(=O)c1ccc(N2CCCC2)cc1", "3.4 µM"),
    ("Cc1cc2c(cc1C)[n+](=O)c(C(=O)C(C)(C)C)c(C(F)(F)F)n2[O-]", "50 µM"),
    ("N#Cc1cc2c(N)ncnc2nc1N1CCCC1", "54.4 µg/mL"),
]

Then there is this compound:
Problem: Please list GI50 recorded for the compound `CCN(Cc1cccnc1)c1ccc(CO)c(Cl)c1`
Solution: 23.5 µM

----------
system: UACC-62 melanoma; assay: NCI tumour cell line growth inhibition, 48 h
Assignment: determine reported TGI for the given compounds.

Solved entries:
# Compound, Value
rows = [
    ("O=CC12c3ccccc3C(c3ccccc31)C1C(=O)NC(=O)C12 (stereo unspecified)", "> 100 µM"),
    ("O=C(CC(C(=O)c1ccc(F)cc1)c1ccsc1)c1cccs1 (stereo unspecified)", "> 100 µM"),
    ("NNC(=O)c1n[nH]n(N)c1=S", "> 100 µM"),
]

Could you report TGI for every entry in the following list?
1. O=C1c2ccccc2C(=O)c2c(Nc3ccc(CCO)cc3)ccc(O)c21
2. OCCCc1n(Cc2ccc3ccccc3c2)c2ccccc2[n+]1Cc1ccc2ccccc2c1
3. CCOC(=O)C1=C(C)N=C2SC=C(c3ccccc3)N2[C@H]1c1cn[nH]c1-c1ccc(Cl)cc1
4. CCO.CCO.Oc1ccc(Nc2ncns2)cc1.Oc1ccc(Nc2ncns2)cc1.[Ti]

Solution:
1. 32.3 µM
2. 2.09 µM
3. 12.5 µM
4. > 100 µM

Consider the following items and state reported TGI for each.
1. Cc1cc(C)c2ccc(N3CCNCC3)nc2n1
2. Cc1ccc(C(=Nc2ccccc2)N=P(c2ccccc2)(c2ccccc2)c2ccccc2)cc1
3. Clc1ccc(OCCSCCCCCCCCCCSCCOc2ccc(Cl)cc2)cc1
4. CC(=O)NNc1nc(C)c(C(=O)NNC(=O)C(=O)Nc2c(C)cccc2C(C)C)s1

Solution:
["> 100 µM", "5.07 µM", "> 100 µM", "> 100 µM"]

----------
Assignment: determine reported TGI for the given compounds.
tested on: MALME-3M melanoma; experiment: NCI tumour cell line growth inhibition, 48 h

# Compound, TGI
rows = [
    ("CCn1c2ccccc2c2nnc(NCCCO)nc21", "> 100 µM"),
    ("COC(=O)C1CC(C(=O)OC)c2nc3cc([N+](=O)[O-])ccc3nc21 (configuration not stated)", "> 100 µM"),
    ("O=C(O)CCc1ccc(-c2ccccc2)[nH]1", "> 100 µM"),
    ("CCOC(=O)c1ccc2c(c1)nc(-c1ccc(Cl)cc1)n2-c1cc(C(C)(C)C)[nH]n1", "9.18 µM"),
    ("COc1oc(C(=O)NC2CCCCC2)c(-c2ccc(Cl)cc2)c1S(=O)(=O)c1ccccc1", "> 45.9 µM"),
]

Need TGI for each of these compounds.
1. Cc1ccc(S(=O)(=O)n2cc(/C=C/C#N)c(/C=C/C#N)c2)cc1
2. O=C1Nc2ccccc2/C1=C/C(=O)c1ccc(N2CCCC2)cc1
3. N#CCCN(c1ccc(/C=N/c2nc(-c3ccccc3)cs2)cc1)S(=O)(=O)c1ccccc1
4. O=CC12c3ccccc3C(c3ccccc31)C1C(=O)NC(=O)C12 (configuration not stated)
5. CCCCN(CCCC)CC(O)c1cc(-c2ccc(Cl)c(Cl)c2)nc2c(Cl)cc(Cl)cc12 (configuration not stated)
6. CN1CCC(SC2Cc3cc(Cl)ccc3Sc3ccccc32)CC1 (configuration not stated)
7. CCCCCCCC/C=C(\Br)C(O)C(Br)Br (configuration not stated)

Solution:
1. > 100 µM
2. > 100 µM
3. > 100 µM
4. > 100 µM
5. > 100 µM
6. 28.8 µM
7. 43 µM

----------
For each record, write down the corresponding TGI.
tested on: HCT-15 colon; assay: NCI tumour cell line growth inhibition, 48 h

Look over these answered cases.
# Molecule, Property Measured, Value
data = [
    ("COc1ccc(NC(=O)CC(=O)NN)cc1", "TGI", "> 100 µM"),
    ("COc1ccc([As]=[As]c2ccc(OC)c(NCS(=O)(=O)O)c2)cc1NCS(=O)(=O)O (stereo unspecified)", "TGI", "3.31 µM"),
    ("CCOC(NC(=O)CC)(C(F)(F)F)C(F)(F)F", "TGI", "> 100 µM"),
    ("NC(=O)c1ncn2c1CNC(=O)C2", "TGI", "> 100 µM"),
    ("NC1CCCCC1", "TGI", "> 562 µM"),
]

Now look at this one.
Problem: Give me measured TGI, please, for this molecule: `Nc1nc(N)c(-c2cccc(C(F)(F)F)c2)c(Cc2cccc(C(F)(F)F)c2)n1`
Solution: 16.5 µM

----------
test system: DLD-1 colon; assay: NCI tumour cell line growth inhibition, 48 h
Could you please report measured TGI for the items listed next?

Consider the reported TGI for these compounds:
# Compound, Value
measured = [
    ("O=C(Nc1ccc(F)cc1)C(=O)C(C(=O)c1ccccc1F)C1OC(=O)c2ccccc21 (stereo unspecified)", "> 100 µM"),
    ("CC12CCC(=O)N1c1cnccc1N2 (stereo unspecified)", "> 100 µM"),
    ("COc1ccc(C(=O)c2c(C(C(=O)c3ccc(OC)cc3)C(=O)c3ccc(OC)cc3)n(C(=O)c3ccc(OC)cc3)c3ccccc23)cc1", "> 100 µM"),
    ("CCc1ccccc1NC(=O)C1=C(C)NC(C)=C(C(=O)Nc2ccccc2CC)C1c1cccc([N+](=O)[O-])c1", "> 100 µM"),
    ("CSc1nc2c(nc(N)n2C2OC(CO)C(O)C(O)C2O)c(=O)n1C (stereo unspecified)", "> 100 µM"),
]

Would you mind listing TGI for each of the following compounds?
1. COc1ccc(N2C(=O)/C(=C/c3ccc(N(CCC#N)CCC#N)cc3C)N=C2/C=C\c2ccccc2)cc1
2. COP(=O)(CC(=O)C1OC(C)(C)OC1C(O)COCc1ccccc1)OC (stereo unspecified)
3. C[O+]=c1cccc2ssnc1-2
4. Cc1ccccc1NC(=O)c1cc2cc(N=Nc3ccccc3C(=O)O)ccc2oc1=O

Solution:
["> 100 µM", "> 100 µM", "> 100 µM", "54.3 µM"]

Quick one: give me TGI for each item below, same order please.
1. O=c1[nH]c2nc3ccccc3n2c(O)c1-c1ccccc1
2. Clc1ccc(C2=Nc3ccccc3SC(c3cccs3)C2)cc1 (stereo unspecified)

Solution:
1: > 100 µM; 2: 22 µM

----------
system: NCI-H226 lung; experiment: NCI tumour cell line growth inhibition, 48 h; in the data active means GI50 below about 0.43 µM; inactive means the rest
Please reply with one of these outcomes: active, inactive

Worked examples follow.
# Molecule, Target Under Test, Cat
records = [
    ("CCN(Cc1ccccc1F)c1ccc(CO)c(Cl)c1", "NCI-H226 lung", "active"),
    ("COc1cc2c(cc1OC)[C@@H]1C(=O)c3cc4c(cc3[C@@H]1N(CCN(C)C)C2=O)OCO4", "NCI-H226 lung", "active"),
    ("CS(=O)(=O)c1ccc(Oc2cc(F)cc(C#N)c2)c2c1[C@H](O)[C@H](F)[C@H]2F", "NCI-H226 lung", "inactive"),
    ("COc1ccc([As]=[As]c2ccc(OC)c(NCS(=O)(=O)O)c2)cc1NCS(=O)(=O)O (stereo unspecified)", "NCI-H226 lung", "inactive"),
    ("CCN(CC)c1ccc(C2=NN(C(C)=O)C(c3cc(OC)c(OC)c(OC)c3)C2)cc1 (stereo unspecified)", "NCI-H226 lung", "inactive"),
]

Problem: Would you mind telling me which call this test gave `CCCCCCCCCCCC[C@@H](O)[C@H]1CC[C@H]([C@H](O)CCCC[C@H](O)CCCCC[C@@H](O)CC2=C[C@H](C)OC2=O)O1` ?
Solution: inactive

----------
Assign TGI to each entry below.
test system: K-562 leukemia; assay: NCI tumour cell line growth inhibition, 48 h

// worked examples, TGI included
# Compound, Property Measured, Value
rows = [
    ("COc1ccc(N2C(=O)/C(=C/c3ccc(N(CCC#N)CCC#N)cc3C)N=C2/C=C\\c2ccccc2)cc1", "TGI", "> 100 µM"),
    ("NC1CCCCC1", "TGI", "> 562 µM"),
]

Can you give me TGI for all of these, one by one?
1. C[C@@H](c1ccccc1)N1CN(C(=O)OCc2ccccc2)C(CO)C1=O (stereo partly specified)
2. Cn1nc(-c2ccccc2)c(C(=O)/C=C/c2ccc(F)cc2)c(N2CCCC2)c1=O
3. CC(C)=CCC/C(C)=C/CCC(C(=O)COCc1ccccc1)P1(=O)OC(C)(C)CN1C(C)(C)C (stereo unspecified)
4. CCOC(=O)c1nnsc1NC(=O)NCCCCCCn1c(=O)n(CCCCCCNC(=O)Nc2snnc2C(=O)OCC)c(=O)n(CCCCCCNC(=O)Nc2snnc2C(=O)OCC)c1=O
5. Cc1ccc(S(=O)(=O)NNC(=O)Nc2ccc(Cl)cc2)cc1

Solution:
1: > 100 µM; 2: 38.5 µM; 3: 73.9 µM; 4: > 100 µM; 5: > 100 µM
